System: Plasmodium falciparum
ASSAY_METHOD_TEXT: Confirmatory screen in NF54 pLDH assay, in single point, at 2uM, 72h
Assay type: functional, Erythrocyte
MEASUREMENT_SETUP: timepoint 72 hour
The campaign covered roughly 4,800 compounds. About 410 (8.5%) showed an effect of 50% or more. Only a selection was taken, and strong results are over-represented in it overall.
RECORDED_ENDPOINT: % Inhibition (%)

                                    compound           study_system  recorded_endpoint  readout_units  value
 0        COc1ccccc1CC(=O)N(c1nc(C)cs1)C1CC1  Plasmodium falciparum       % Inhibition              %     -8
 1             O=C1CCC[C@H](O)N1Cc1ccc(F)cc1  Plasmodium falciparum       % Inhibition              %      8
 2  CCCn1nnc(N(C(=O)c2cc(Br)cc(C)c2OC)C(=O)c2cc(Br)cc(C)c2OC)n1  Plasmodium falciparum       % Inhibition              %      0
 3  O=C1[C@@H]2C[C@@H](CN2C(=O)c2cncnc2)Oc2ccccc2N1Cc1cccnc1  Plasmodium falciparum       % Inhibition              %      6
 4  CC1CC(C(=O)Nc2[nH]c(=O)ncc2F)CC(C)(C)C1 (configuration not stated)  Plasmodium falciparum       % Inhibition              %     84
 5     Cc1noc(C)c1C(=O)NC[C@H](O)Cn1ccccc1=O  Plasmodium falciparum       % Inhibition              %      6
 6  O=C(Nc1ccc(Cn2ccnc2)cc1)c1cc2ccccc2cc1OC(F)F  Plasmodium falciparum       % Inhibition              %    -12
 7           Cc1ccc(N(C)CC(=O)N2CCC2)c(Br)c1  Plasmodium falciparum       % Inhibition              %     -7
 8      Cc1csc(NC(=O)NCCc2cc(F)cc3c2OCOC3)n1  Plasmodium falciparum       % Inhibition              %    -14
 9             COc1ccc(-c2cn3cc(C)nc3n2C)cc1  Plasmodium falciparum       % Inhibition              %      0
10  Cc1cc[n+]2c(-c3ccccc3)cc(-c3ccccc3)nc2c1  Plasmodium falciparum       % Inhibition              %     50
11    O=C(O)C[C@H](NC(=O)c1cscn1)c1ccc(Cl)s1  Plasmodium falciparum       % Inhibition              %    -23
12  Cc1cc(-c2ccccc2)nc2sc(-c3ccccc3)c([O-])[n+]12  Plasmodium falciparum       % Inhibition              %      5
13  COc1ccc(NC(=O)c2cc3c(C)nn(-c4ccccc4)c3s2)cn1  Plasmodium falciparum       % Inhibition              %      9
14  NC(=O)N1CCC[C@H]1C(=O)NC1CC(=O)N(C2CC2c2ccccc2)C1 (some centres not stated)  Plasmodium falciparum       % Inhibition              %      8
15  Cc1ccc(S(=O)(=O)N2CCC[C@H](C(=O)NCc3cccc(NC(=O)N4CCCC4)c3)C2)s1  Plasmodium falciparum       % Inhibition              %      8
16  CC(C)(C)CC(=O)Nc1ccc2c(c1)C(N1CCCCC1)=Nc1ccccc1O2  Plasmodium falciparum       % Inhibition              %     -4
17        N#CCc1ncc(CCN2C(=O)c3ccccc3C2=O)s1  Plasmodium falciparum       % Inhibition              %      7
18  O=C(COc1ccccc1)Nc1ccc2c(c1)C(O)=Nc1cccnc1O2  Plasmodium falciparum       % Inhibition              %     64
19        N#Cc1cccc(CNCC2(N3CCOCC3)CCCCC2)c1  Plasmodium falciparum       % Inhibition              %     -4
20  COc1ccc(NC(=O)N2C[C@@H]3C[C@H](NS(=O)(=O)c4ccccc4)[C@H]2C3)c(C)c1  Plasmodium falciparum       % Inhibition              %      3
21  Cc1cc(-c2ccccc2)cc(-c2ccccc2)c1-c1cc(-c2ccccc2)cc(-c2ccccc2)n1  Plasmodium falciparum       % Inhibition              %     -3
